Attribution: ChEMBL document CHEMBL1157712

# system: Cytochrome P450 2C9 (Homo sapiens)
# Sequence (P11712 whole entry): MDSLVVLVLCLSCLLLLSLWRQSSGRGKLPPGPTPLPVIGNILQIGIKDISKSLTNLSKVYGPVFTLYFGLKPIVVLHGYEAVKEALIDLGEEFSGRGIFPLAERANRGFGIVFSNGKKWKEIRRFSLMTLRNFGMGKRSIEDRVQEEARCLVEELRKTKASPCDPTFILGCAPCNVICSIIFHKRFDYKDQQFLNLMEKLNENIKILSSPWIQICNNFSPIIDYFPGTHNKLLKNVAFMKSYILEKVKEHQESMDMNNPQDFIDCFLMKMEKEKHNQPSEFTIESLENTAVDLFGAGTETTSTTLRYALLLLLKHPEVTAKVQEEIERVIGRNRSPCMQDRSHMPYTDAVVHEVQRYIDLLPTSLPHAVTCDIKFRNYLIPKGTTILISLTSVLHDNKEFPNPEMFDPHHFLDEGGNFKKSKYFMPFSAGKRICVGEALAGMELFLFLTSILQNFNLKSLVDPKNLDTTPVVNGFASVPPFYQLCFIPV
# test protocol: Inhibition of human CYP2C9 by LCMS/MS assay
# Format: ADME
pIC50: −log10 of the molar value.
This section presents compounds with their documented pIC50 values.
metric: pIC50

structure_as_smiles=COc1ccc(C(=O)NCc2cccc(C(=O)Nc3ccc(CN(C)C)cc3)c2)cc1Cl measured_value="< 4.52"
structure_as_smiles=COc1ccc(C(=O)NCc2cccc(C(=O)Nc3ccc(CN(C)C)cc3)c2)cc1C measured_value=4.90
structure_as_smiles=COc1ccc(C(=O)NCc2cccc(C(=O)Nc3ccc(CO)cc3)c2)cc1OC measured_value="< 4.52"

====

This section presents compounds with their documented IC50 values.
# system: Cytochrome P450 3A4 (Homo sapiens, UniProt P08684)
# Sequence (P08684 whole entry): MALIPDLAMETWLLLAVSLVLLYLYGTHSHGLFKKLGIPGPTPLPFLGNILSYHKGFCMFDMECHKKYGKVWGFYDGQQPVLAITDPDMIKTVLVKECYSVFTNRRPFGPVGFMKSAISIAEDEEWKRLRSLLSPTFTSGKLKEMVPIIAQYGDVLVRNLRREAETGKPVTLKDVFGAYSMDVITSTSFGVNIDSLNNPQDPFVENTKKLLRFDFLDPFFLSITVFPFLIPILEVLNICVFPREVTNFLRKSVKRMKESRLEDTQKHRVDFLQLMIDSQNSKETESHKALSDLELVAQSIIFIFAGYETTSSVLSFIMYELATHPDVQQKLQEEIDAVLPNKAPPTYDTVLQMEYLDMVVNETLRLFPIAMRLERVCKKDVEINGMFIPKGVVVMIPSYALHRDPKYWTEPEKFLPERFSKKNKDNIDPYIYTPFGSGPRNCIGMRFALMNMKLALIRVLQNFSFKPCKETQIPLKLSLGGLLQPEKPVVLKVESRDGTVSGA
# test protocol: Inhibition of human CYP3A4 using BQ substrate by fluorescence assay
# Type: ADME
metric: IC50

compound=COc1ccc(C(=O)NCc2cccc(C(=O)Nc3ccc4c(c3)CN(C)CC4)c2)cc1OC system="Cytochrome P450 3A4 (Homo sapiens, UniProt P08684)" measured_value="> 30 µM"
compound=COc1ccc(C(=O)NCc2cccc(C(=O)NCCC3CCNCC3)c2)cc1OC system="Cytochrome P450 3A4 (Homo sapiens, UniProt P08684)" measured_value="> 30 µM"
compound="COc1ccc(C(=O)NCc2cccc(C(=O)NCCC3CCCNC3)c2)cc1OC (stereo unspecified)" system="Cytochrome P450 3A4 (Homo sapiens, UniProt P08684)" measured_value="> 30 µM"
compound=COc1ccc(C(=O)NCc2cccc(C(=O)NCCc3ccncc3)c2)cc1OC system="Cytochrome P450 3A4 (Homo sapiens, UniProt P08684)" measured_value="21 µM"
compound=COc1ccc(C(=O)NCc2cccc(C(=O)Nc3ccc(CN(C)C)cc3)c2)cc1OC system="Cytochrome P450 3A4 (Homo sapiens, UniProt P08684)" measured_value="> 30 µM"
compound=N#Cc1ccc(NC(=O)NCc2cccc(C(=O)Nc3ccc4c(c3)CNCC4)c2)cc1 system="Cytochrome P450 3A4 (Homo sapiens, UniProt P08684)" measured_value="> 30 µM"

====

# system: Serine/threonine-protein kinase N2 (Homo sapiens, UniProt Q16513)
# Sequence (Q16513 whole entry): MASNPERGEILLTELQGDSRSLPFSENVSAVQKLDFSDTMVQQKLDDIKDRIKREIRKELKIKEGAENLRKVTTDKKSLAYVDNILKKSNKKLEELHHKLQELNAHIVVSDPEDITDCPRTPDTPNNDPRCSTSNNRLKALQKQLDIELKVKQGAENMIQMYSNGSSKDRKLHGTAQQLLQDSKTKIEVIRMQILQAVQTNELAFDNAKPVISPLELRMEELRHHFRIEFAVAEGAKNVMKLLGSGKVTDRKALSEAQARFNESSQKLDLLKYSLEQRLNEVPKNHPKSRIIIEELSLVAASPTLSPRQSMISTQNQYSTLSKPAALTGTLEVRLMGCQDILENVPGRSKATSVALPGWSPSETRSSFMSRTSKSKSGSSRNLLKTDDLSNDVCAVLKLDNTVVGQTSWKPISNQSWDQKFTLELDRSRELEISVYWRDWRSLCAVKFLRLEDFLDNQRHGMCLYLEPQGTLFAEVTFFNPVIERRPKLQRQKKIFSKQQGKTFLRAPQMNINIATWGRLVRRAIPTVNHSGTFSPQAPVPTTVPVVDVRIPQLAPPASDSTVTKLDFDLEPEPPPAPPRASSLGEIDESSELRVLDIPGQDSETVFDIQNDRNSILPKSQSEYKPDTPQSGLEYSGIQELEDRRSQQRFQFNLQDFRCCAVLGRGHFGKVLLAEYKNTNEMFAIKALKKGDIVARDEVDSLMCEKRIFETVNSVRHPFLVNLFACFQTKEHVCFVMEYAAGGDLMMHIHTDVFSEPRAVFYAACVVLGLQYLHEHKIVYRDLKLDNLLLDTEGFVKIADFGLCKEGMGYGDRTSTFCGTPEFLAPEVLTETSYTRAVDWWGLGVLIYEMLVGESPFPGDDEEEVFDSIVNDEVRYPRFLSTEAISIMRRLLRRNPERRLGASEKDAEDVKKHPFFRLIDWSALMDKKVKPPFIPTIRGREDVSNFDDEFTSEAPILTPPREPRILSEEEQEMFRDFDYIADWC
metric: IC50

compound=COc1ccc(C(=O)NCc2cccc(C(=O)Nc3ccc4c(c3)CN(C)CC4)c2)cc1OC metric=IC50 measured_value="> 5 µM"
compound=NC(=O)c1ccc(NC(=O)NCc2cccc(C(=O)Nc3ccc4c(c3)CNCC4)c2)cc1 metric=IC50 measured_value="0.77 µM"
compound="COc1ccc(C(=O)NCc2cccc(NC(=O)CCC3CCCNC3)c2)cc1OC (stereo not drawn)" metric=IC50 measured_value="> 5 µM"

====

# system: Cytochrome P450 3A4 (Homo sapiens, UniProt P08684)
# test protocol: Inhibition of human CYP3A4 by LCMS/MS assay
# Format: ADME
pIC50: −log10 of the molar value.
metric: pIC50

structure_as_smiles=COc1ccc(C(=O)NCc2cccc(C(=O)Nc3ccc(CN(C)C)cc3)c2)cc1Cl metric=pIC50 measured_value="< 4.52"
structure_as_smiles=COc1ccc(C(=O)NCc2cccc(C(=O)Nc3ccc(CO)cc3)c2)cc1OC metric=pIC50 measured_value="< 4.52"
structure_as_smiles=COc1ccc(C(=O)NCc2cccc(C(=O)Nc3ccc(CN(C)C)cc3)c2)cc1C metric=pIC50 measured_value=4.87
structure_as_smiles=COc1ccc(C(=O)NCc2cccc(C(=O)Nc3ccc4c(c3)CNCC4)c2)cc1OC metric=pIC50 measured_value="< 4.52"
